Test: Cytotoxicity against HMEC-1 cells treated for 72 hrs by MTT assay
Format: toxicity, cell-based
Settings: human
Overview of recorded IC50 at 72 h for various compounds
Give just the number in µM; leave the unit off.

COC1=C(Cc2ccccc2)C(=O)C2=C(NCCS2(=O)=O)C1=O: 17.6

Consider the additional compound presented here.
Which IC50 at 72 h is reported for this compound? CCC1=C(NC(=O)C(C)(C)C)C(=O)C2=C(NCCS2(=O)=O)C1=O
1.6

###

Assay: Cytotoxicity against […] LLC-PK1 cells incubated for 24 hrs by MTT assay
Assay type: toxicity, cell-based, Sus scrofa
Settings: pig
MEASUREMENT NAME: CC50 at 24 h (nM)
Dear colleague, please return just the value in nM, with no unit written.

Endpoint output: CC50 at 24 h of CC1(C)CCC2=C(O1)C(=O)c1ccccc1C2=O [ALPHA-LAPACHONE] . Value?
2090

###

Tested on: Plasmodium falciparum
Test: Antimalarial activity against Plasmodium falciparum W2
Format: functional, organism-based
MEASUREMENT NAME: log10 IC50 (log10 of the value in nM)
Plainly stated, the numbers are log10 of IC50 given in nM.

Previously resolved entries follow.
C[C@@H](CCCCCC(F)(F)F)CC1=C(O)C(=O)c2ccccc2C1=O: 1.81
CCCCCC[C@H](C)CC1=C(O)C(=O)c2c(C)cccc2C1=O: 2.28
O=C1C(O)=C([C@H]2CC[C@H](c3ccc(Cl)cc3)CC2)C(=O)c2ccccc21: 0.00
COC1=C(Cc2ccc(OC)cc2)C(=O)C2=C(NCCS2(=O)=O)C1=O: 3.08
COC1=C(Cc2ccc(Cl)cc2)C(=O)C2=C(NCCS2(=O)=O)C1=O: 3.21

Would you kindly share the measured log10 IC50 for CCCCCC[C@H](C)CC1=C(O)C(=O)c2ccccc2C1=O ?
2.33

Fill blank: measured log10 IC50 of the compound COC1=C(Cc2ccc(OC(F)(F)F)cc2)C(=O)C2=C(NCCS2(=O)=O)C1=O is ____.
3.05

###

The entries below are paired with their reported selectivity ratio.
Experiment: Selectivity index, ratio of CC50 for african green monkey Vero cells to IC50 for Chloroquine resistant Plasmodium falciparum K1
Type: toxicity
Conditions: read-out: Ratio CC50/IC50

Cc1cc(O)c2c(c1)C(=O)c1cc(O)c(CN3CCN(C)CC3)c(O)c1C2=O: 315

Fill in: selectivity ratio of Cc1cc(O)c2c(c1)C(=O)c1cc(O)c(CN3CCCCC3)c(O)c1C2=O is ___
315

###

Test: Cytotoxicity against African green monkey Vero cells
Assay type: toxicity, cell-based
Conditions: chlorocebus sabaeus
MEASUREMENT NAME: CC50
A complete answer gives the number followed by the unit.

Any idea what its CC50 is? The molecule is Cc1cc(O)c2c(c1)C(=O)c1cc(O)c(CN3CCCCC3)c(O)c1C2=O
782 µM

Would you mind telling me what CC50 value was observed for CCN(CC)CCCC(C)Nc1ccnc2cc(Cl)ccc12 (stereo not drawn) ?
227 µM

Which CC50 is listed for Cc1cc(O)c2c(c1)C(=O)c1cc(O)c(CN3CCN(C)CC3)c(O)c1C2=O ?
782 µM

###

System: Plasmodium falciparum
Test: Antiplasmodial activity against Plasmodium falciparum W2 assessed as inhibition of parasite growth after 48 hrs by pLDH assay
Type: functional, organism-based
Details: W2, 48 h
MEASUREMENT NAME: pIC50
Just so you know, pIC50 here is -log10 of the concentration in molar units; reply with that number alone.

Look up pIC50: O=C1c2ccccc2C(=O)c2oc(Cc3ccccc3)cc21
5.82
